Biological target: dengue virus NS5 polymerase domain (DENVpol, serotype 2, New Guinea C strain) (Dengue virus type 2)
Test: Dengue virus polymerase inhibition assay
Details: DENVpol serotype 2, 3 hours at 30° C., mean of several independent experiments
experimental endpoint: IC50

C#C[C@]1(O)[C@H](n2cnc3c(=O)[nH]c(N)nc32)O[C@](F)(COP(=O)(O)OP(=O)(O)OP(=O)(O)O)[C@H]1F: < 1 µM
C[C@]1(Cl)[C@H](n2ccc(=O)[nH]c2=O)O[C@](F)(COP(=O)(O)OP(=O)(O)OP(=O)(O)O)[C@H]1O: < 10 µM
C[C@]1(F)[C@H](n2cnc3c(=O)[nH]c(N)nc32)O[C@](F)(COP(=O)(O)OP(=O)(O)OP(=O)(O)O)[C@H]1O: < 10 µM

Let me know recorded IC50 for C#C[C@]1(F)[C@H](n2cnc3c(=O)[nH]c(N)nc32)O[C@](F)(COP(=O)(O)OP(=O)(O)OP(=O)(O)O)[C@H]1O , thanks.
< 10 µM

Return IC50 (reported value) for this compound: C[C@]1(O)[C@H](n2ccc(N)nc2=O)O[C@](F)(COP(=O)(O)OP(=O)(O)OP(=O)(O)O)[C@H]1O
< 10 µM

Determine from records and report IC50 for Nc1nc2c(ncn2[C@@H]2O[C@](F)(COP(=O)(O)OP(=O)(O)OP(=O)(O)O)[C@@H](O)[C@H]2F)c(=O)[nH]1
< 10 µM
